Data provenance is PubChem BioAssay AID485344.

- tested_on: D(2) dopamine receptor (Homo sapiens)
- test_details: HTS Assay for Allosteric Antagonists of the Human D2 Dopamine Receptor: Primary Screen for Antagonists
- condition_notes: HEK293 TREx D2 cells, calcium flux, dopamine EC80; at 10 µM
- Method: NIH Chemical Genomics Center [NCGC] NIH Molecular Libraries Probe Centers Network [MLPCN] […] Freshly passaged cells are plated in 1536 well black, clear bottom plates at a density of 4000 cells/well in 3 ul of complete media containing 1x tetracycline inducer. […] Agonist read: A 10 cycle (1 second/cycle) baseline measurement is taken and then the FDSS online 1536 pintool delivers 23 nl of compound library (as well as dopamine controls) to the plate. […]
In all, about 340,000 compounds went through this assay and about 6,900 (2%) were called active. Cut-off read from the data, not from the text of the source: active = inhibition above about 30%; inactive = below that, where a call was filed. For the sample, actives were picked, then their nearest neighbours and some compounds at random.
Outcomes you can answer with include only these: true (active), false (inactive)

Prompt line: Can you look up the reported call for COc1ccc(S(=O)(=O)N2CCOCC2)cc1NC(=O)CC1CC2CCC1C2 (stereo unspecified) for me?
Response line: false

Prompt line: Next entry: COc1cc(OC)cc(C(=O)NC(=S)N2CCN(c3ccc(C(F)(F)F)cc3[N+](=O)[O-])CC2)c1
Response line: true

Prompt line: Next entry: COc1ccccc1C1=CC(=O)C[C@H](c2ccc(F)cc2)C1
Response line: false

Prompt line: Next entry: COC(=O)c1ccc(COC(=O)CNC(=O)c2cccc(OC)c2)o1
Response line: false

Prompt line: Next entry: O=S(=O)(c1ccc(SCc2ccc(Br)cc2)nc1)N1CCOCC1
Response line: false

Prompt line: Next entry: CCN(CC(=O)N1CCCC1)S(=O)(=O)c1ccc(F)cc1
Response line: false

Prompt line: Next entry: Cc1ccc(S(=O)(=O)N2CCCCC2)cc1C(=O)N(C)CC(=O)Nc1cccc(F)c1
Response line: true

Prompt line: Next entry: Cc1nnc(SCC(=O)N/N=C/c2cn(-c3ccccc3)nc2-c2ccc(F)cc2)n1-c1ccccc1
Response line: false

Prompt line: Next entry: CC(C)CN(C(=O)CSc1nncn1C)C1CCS(=O)(=O)C1 (stereo unspecified)
Response line: false

Prompt line: Next entry: CCn1cc(C(=O)N2CCN(C3CCCCC3)CC2)c2cc(OC)c(OC)cc2c1=O
Response line: false

Prompt line: Next entry: Cc1ccc(NC(=O)CN(C)C(=O)c2cccc(S(=O)(=O)N3CCCC3)c2)cc1
Response line: false

Prompt line: Next entry: CCOc1ccc(NC(=O)CN(C)C(=O)c2cccc(S(=O)(=O)N3CCCC3)c2)cc1OCC
Response line: false

Prompt line: Next entry: CC12CCC(=O)N1C(C(=O)NCCN1C(=O)S/C(=C\c3ccccc3F)C1=O)CS2 (stereo unspecified)
Response line: false

Prompt line: Next entry: COc1cccc(N2CC(C(=O)Nc3c(C)cccc3C)CC2=O)c1 (stereo unspecified)
Response line: false

Prompt line: Next entry: O=C(c1cccs1)N1CCN(Cc2ccc3c(c2)OCO3)CC1
Response line: true

Prompt line: Next entry: COc1ccc(C(=O)Oc2ccc(-c3nnco3)cc2)cc1S(=O)(=O)N1CCOCC1
Response line: false

Prompt line: Next entry: COc1ccc([C@H]2CC(=O)C=C(c3ccc(OC(F)(F)F)cc3)C2)cc1OC
Response line: false

Prompt line: Next entry: CCOc1ccc(S(=O)(=O)N2CCCCC2)cc1NC(=O)CN1CCCC1c1cccs1 (stereo unspecified)
Response line: false

Prompt line: Next entry: CS(=O)(=O)N(CC(=O)N1CCCC1)Cc1ccccc1
Response line: true

Prompt line: Next entry: Cc1ccc(-c2nn(-c3ccccc3)cc2/C=N/NC(=O)c2ccc3c(c2)OCO3)cc1
Response line: true

Prompt line: Next entry: CC1CCC(CN2CCN=C2N(C)C)CC1 (stereo unspecified)
Response line: false
